molecular target: Epidermal growth factor receptor (Homo sapiens, UniProt P00533)
Sequence (P00533 whole entry): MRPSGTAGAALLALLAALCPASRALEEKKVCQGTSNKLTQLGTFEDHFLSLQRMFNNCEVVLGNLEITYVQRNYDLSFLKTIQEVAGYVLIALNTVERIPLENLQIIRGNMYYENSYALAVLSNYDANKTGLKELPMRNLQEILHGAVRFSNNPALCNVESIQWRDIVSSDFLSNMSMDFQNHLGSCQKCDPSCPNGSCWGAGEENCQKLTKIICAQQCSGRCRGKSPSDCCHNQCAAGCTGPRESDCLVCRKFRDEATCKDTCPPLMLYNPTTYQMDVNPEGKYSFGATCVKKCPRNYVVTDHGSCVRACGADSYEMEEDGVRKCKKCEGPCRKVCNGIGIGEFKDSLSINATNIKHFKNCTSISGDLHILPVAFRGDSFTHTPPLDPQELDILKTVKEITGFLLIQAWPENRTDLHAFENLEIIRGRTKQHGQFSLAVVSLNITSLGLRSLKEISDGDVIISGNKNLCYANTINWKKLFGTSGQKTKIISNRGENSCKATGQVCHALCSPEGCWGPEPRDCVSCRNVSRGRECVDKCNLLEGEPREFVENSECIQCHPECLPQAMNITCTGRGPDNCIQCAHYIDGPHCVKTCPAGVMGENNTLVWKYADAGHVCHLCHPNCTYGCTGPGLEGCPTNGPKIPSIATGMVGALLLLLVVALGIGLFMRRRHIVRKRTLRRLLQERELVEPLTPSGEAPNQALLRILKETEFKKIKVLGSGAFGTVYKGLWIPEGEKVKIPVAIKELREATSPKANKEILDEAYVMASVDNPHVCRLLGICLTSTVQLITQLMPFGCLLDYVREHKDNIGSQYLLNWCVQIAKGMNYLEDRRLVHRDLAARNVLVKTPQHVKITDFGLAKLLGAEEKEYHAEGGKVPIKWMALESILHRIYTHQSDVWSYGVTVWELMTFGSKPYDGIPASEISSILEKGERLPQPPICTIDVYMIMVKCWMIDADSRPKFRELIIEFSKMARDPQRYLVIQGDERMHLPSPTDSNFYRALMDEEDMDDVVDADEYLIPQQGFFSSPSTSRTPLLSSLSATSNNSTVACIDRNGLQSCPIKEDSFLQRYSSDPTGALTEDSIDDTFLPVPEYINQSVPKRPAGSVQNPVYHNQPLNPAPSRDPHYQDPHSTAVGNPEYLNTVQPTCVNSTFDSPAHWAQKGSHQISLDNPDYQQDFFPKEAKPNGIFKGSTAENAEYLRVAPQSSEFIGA

# smi, IC50
rows = [
    ("COc1cccc2cc(-c3nc([C@H]4CC[C@H](C(=O)O)CC4)n4ncnc(N)c34)[nH]c12", "> 40 µM"),
]

---

target: Serine/threonine-protein kinase mTOR (Homo sapiens); assay: Inhibition of mTOR (unknown origin) assessed as reduction in 4E-BP1 phosphorylation by cell based assay
Quick reference: IC50 of the listed items.

# smi, IC50 / µM
measured = [
    ("COc1cccc2cc(-c3nc([C@H]4CC[C@H](C(=O)O)CC4)n4ncnc(N)c34)[nH]c12", 1),
    ("Nc1nccn2c1c(-c1cc3cccc(Cl)c3[nH]1)nc2[C@H]1CC[C@H](C(=O)O)CC1", 1.1),
]
